# METHOD NOTES: blockers of RIG-like receptor reporter activation – cell-based, Sendai virus stimulus, luciferase, 10K MLSCN set, TLR/RLR signaling modifier project, primary screen (AID 602276);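 further: firefly luciferase from ISG56 promoter only with Renilla not read in this screen; 0% = Sendai virus plus DMSO and 100% = medium plus DMSO without virus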
# ASSAY CONTEXT: HEK293 RL24 IRF3 luciferase reporter, at 10 µM, stronger effect = higher value
I would appreciate it if you labelled entries y when inhibition is 10% or higher, otherwise n.

COMPOUND	CLASSIFICATION
O=C(CSc1ccc(-c2ccccc2)nn1)N1CCOCC1	n
Cc1nc(Nc2nc(=O)c3ccccc3n2C)nc2c(C)cccc12	y
COc1ccc(Br)cc1-c1noc(-c2ccccc2)n1	y
COC(=O)C1=CN(C)C=C(C(=O)OC)C1c1ccc(O)c(OC)c1	y
CCOC(=O)c1[nH]c(C)c(C(=O)Nc2ccc(C)c(Cl)c2)c1C	y
COc1ccccc1N1CCN(C/C(O)=C(\C#N)c2nc(-c3ccccc3)cs2)CC1	n
O=C(COC(=O)c1ccc(Br)o1)Nc1ccc(S(=O)(=O)N2CCCC2)cc1	y
C[C@H](NC(=O)Nc1cccc(C(F)(F)F)c1)C(=O)O	y
CCCNC(=O)Nc1ccccc1C(=O)Nc1ccc(OC)cc1	n
Cc1ccc(OCc2nnc(SCC(=O)Nc3ccc4c(c3)OCO4)n2C)cc1	y
COc1ccccc1-c1nnc(SCC(=O)N2CC(C)CC(C)C2)o1 (stereo unspecified)	y

---

# METHOD NOTES: reduction of polyQ htt aggregates in cells – imaging, exon1htt(103Q)mCFP cells, high-content imaging, primary screen (AID 483);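 further: compound exposure lasted 3 days before fixation; percent of the per-plate median nuclei count of sample wells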
# ASSAY CONTEXT: exon1htt(103Q)mCFP cell line, aggregate imaging, at 2 µM; measured here: cell count, toxicity

COMPOUND	nuclei count
CCC(C(=O)NC1CCCC1)N(Cc1ccco1)C(=O)Cn1nnc(-c2ccc(C)cc2)n1 (stereo unspecified)	114%
CCCNC(=O)c1cc(S(=O)(=O)N2CCc3ccccc32)ccc1F	74.6%
Cc1ccc(Cn2ccc(NC(=O)c3noc4c3CCCC4)n2)cc1	97.7%
CCCCc1nc2ccccc2n2cc3c(=O)n(C)c(=O)n(C)c3c12	81.2%
Cc1ccc(N2C(N)=NC(N)=NC23CCCC3)c(C)c1	106%
CCOC(=O)C1CCN(C(=O)C2CCN(S(=O)(=O)c3cc(Cl)ccc3Cl)CC2)CC1	91.3%
COc1ccc(N2CCN(C(c3cccs3)C(C)NC(=O)c3ccco3)CC2)cc1 (stereo unspecified)	83.9%
CCn1nnnc1SCC(=O)N1CCOCC1	122%
c1ccc(-c2cn3c4c(sc3n2)CCCC4)cc1	118%
CC(=O)NCCC(=O)Nc1ccc(C)c(F)c1	109%
COc1ccc(OC)c(C(=O)CSc2nc3ncccc3[nH]2)c1	113%

---

Collected cell count values appear next to each entry.
# METHOD NOTES: inhibitors of TNFa-induced NFkB p65 translocation, primary screen, imaging, HUVEC, MLSMR starter and 10KST1 sets (AID 438);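 further: compound added about 3h40 before a 20 min TNFalpha stimulation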
# ASSAY CONTEXT: HUVEC TNFa-induced p65 nuclear translocation; measured here: nuclei count (cytotoxicity indicator), at 2.08 µM

COMPOUND	cell count
COC(=O)Cn1ncc2c(C)n(Cc3ccccc3)c(C)c2c1=O	732
CCOC(=O)c1cccc(NC(=O)CSc2nc3cccnc3n2C)c1	782
CCOc1ccc(CCN2C(=O)C3C4C=CC(C4)C3C2=O)cc1OCC (stereo not drawn)	626
CCOC(=O)c1ccc(CNC(=O)C(Cc2c[nH]c3ccccc23)NC(C)=O)o1 (stereo not drawn)	444
CCn1c(SCC(=O)Nc2ccc(C(C)=O)cc2)nc2ccccc21	227
Cc1onc(-c2ccccc2)c1C(=O)N1CCN(C(=O)c2ccco2)CC1	601
O=c1[nH]c(Nc2ccccc2)cc2ccccc12	526
COc1ccc(CCNC(=O)c2cc(C(C)C)on2)cc1OC	825
O=C(C1CC2CCC1C2)N1CCN(Cc2ccc3c(c2)OCO3)CC1 (stereo not drawn)	408
CC(C)(C)NC(=O)CN(Cc1cccs1)C(=O)c1csnn1	570
CC(C)NC(=O)c1ccccc1NC(=O)CCS(=O)(=O)Cc1ccccc1	560
CCOC(=O)c1ccc(NC(=O)CSc2nnc(COc3ccccc3)n2C)cc1	393
CC(C)(C)c1cc(NS(=O)(=O)c2ccc3c(c2)OCCO3)on1	574
Cc1cccc(NC(=O)CCCCCN2C(=O)c3ccccc3C2=O)n1	495
Cc1nc(-c2ccc(NC(=O)c3cccs3)cc2)cs1	369
Cn1nc(-c2ccc(N3CCCCC3)c(NC(=O)c3ccco3)c2)c2ccccc2c1=O	672
COc1ccccc1CC(=O)Nc1ccc(OC)c(OC)c1	330
Cc1cccc(NC(=O)CN(C)S(=O)(=O)c2ccccc2)n1	536
COc1ccc2nc(NC(=O)CSc3nnc(-c4ccoc4C)n3C)sc2c1	392
CN(C)C(=O)COc1ccc2cc(-c3ccccc3)c(=O)oc2c1	300
O=C(CSc1nc2ccccc2o1)N1CCN(C(=O)c2ccco2)CC1	595
COc1ccc(-c2nnc(SC(C)C(=O)Nc3nccs3)n2-c2ccccc2)cc1OC (stereo not drawn)	548
Cc1nn(-c2nc3ccccc3[nH]2)c(N)c1-c1ccccc1	666
